Where do these numbers come from? They come from ChEMBL document CHEMBL5346892.

# System: Escherichia coli
# PROTOCOL_SUMMARY: Synergistic antibacterial activity against wild type Escherichia coli BW25113 assessed as levofloxacin MIC at 8 microg/ml incubated for 18 hrs by broth dilution assay
# Format: functional
# ASSAY_CONTEXT: dose 8 µg/ml
Peptide text beside a SMILES is read from it.
READOUT_TYPE: MIC (µg/mL)

molecule=CC1(C)CCc2c(C(=O)N3CCOCC3)cc3c(OCCCOc4cccc(C(=O)O)c4)cccc3c2O1 val=0.016
molecule=COc1ccc(OCCCOc2cccc3c4c(c(C(=O)N5CCOCC5)cc23)CCC(C)(C)O4)cc1 val=0.032
molecule=CC1(C)CCc2c(C(=O)N3CCOCC3)cc3c(OCCOc4ccc([N+](=O)[O-])cc4)cccc3c2O1 val=0.032
molecule="N=C(N)NCCC[C@H](NC(=O)[C@@H](N)Cc1ccccc1)C(=O)Nc1ccc2ccccc2c1 [PABETAN] (HELM PEPTIDE1{F.R.[c1ccc2cc(N[*:1])ccc2c1]}$$$$V2.0)" val=0.016
molecule=CC1(C)CCc2c(C(=O)N3CCOCC3)cc3c(OCCN4CCN(c5ccccc5)CC4)cccc3c2O1 val=0.032
molecule=CC1(C)CCc2c(C(=O)N3CCOCC3)cc3c(OCCCSc4ccc(N)cc4)cccc3c2O1 val=0.008
molecule=CC1(C)CCc2c(C(=O)N3CCOCC3)cc3c(OCCSc4ccc([N+](=O)[O-])cc4)cccc3c2O1 val=0.016
